Entries and their Cmax
Experiment: Pharmacokinetic test in rats (gavage 3 mg/kg, intravenous 1 mg/kg)
Type: in vivo
Settings: rat, plasma, po; SD rats, gavage 3 mg/kg; read-out: Blood concentration Cmax
assay.metric: Cmax (ng/mL)

{"molecule": "Cc1nsc(-c2nc(-c3cc(F)ncc3F)c3n2CCN(C(=O)c2ccc(F)cc2)[C@@H]3C)n1 [Compound 077]", "observed": 494}
{"molecule": "Cc1nsc(-c2nnc3n2CCN(C(=O)c2ccc(F)cc2)[C@@H]3C)n1 [Fezolinetant, reference compound]", "observed": 2180}
{"molecule": "CC(=O)Nc1nc(-c2nc(C)ns2)n2c1[C@@H](C)N(C(=O)c1ccc(F)cc1)CC2 [Compound 034]", "observed": 1290}
{"molecule": "Cc1nsc(-c2nc(N3C[C@H](F)CC3=O)c3n2CCN(C(=O)c2ccc(F)cc2)[C@@H]3C)n1 [Compound 107]", "observed": 348}
{"molecule": "Cc1nsc(-c2nc(N3CCCC3=O)c3n2CCN(C(=O)c2ccc(F)cc2)[C@@H]3C)n1 [Compound 068]", "observed": 1030}

====

Experiment: Pharmacokinetic test in rats: plasma and brain concentration after gavage 3 mg/kg
Assay type: in vivo
Details: rat, plasma, oral, SD rats, sampling time 0.5 h, read-out: Plasma conc.
assay.metric: concentration at 0.5 h (ng/mL)

{"smiles.record": "Cc1nsc(-c2nc(-c3cc(F)ncc3F)c3n2CCN(C(=O)c2ccc(F)cc2)[C@@H]3C)n1", "measurement.unit": "ng/mL", "observed": 798}

====

Assay: Pharmacokinetic test in rats (gavage 3 mg/kg, intravenous 1 mg/kg)
Format: in vivo
Settings: rat, plasma; SD rats, intravenous injection 1 mg/kg; read-out: Curve area AUC
Experimental: Test Example 2: Pharmacokinetic Test of Compounds of the present invention in Rats To study in vivo pharmacokinetic behaviors of the compounds of the present invention in rats, and evaluate pharmacokinetic characteristics thereof. […] Contents of the test compounds in plasma of the rats after gavage administration were determined by LC/MS/MS.
Entries and their AUC

{"compound": "CC(=O)Nc1nc(-c2nc(C)ns2)n2c1[C@@H](C)N(C(=O)c1ccc(F)cc1)CC2", "AUC [ng·h/mL]": 2240}
{"compound": "Cc1nsc(-c2nc(-c3cc(F)ncc3F)c3n2CCN(C(=O)c2ccc(F)cc2)[C@@H]3C)n1", "AUC [ng·h/mL]": 5170}
{"compound": "Cc1nsc(-c2nc(N3CCCC3=O)c3n2CCN(C(=O)c2ccc(F)cc2)[C@@H]3C)n1", "AUC [ng·h/mL]": 1280}
{"compound": "Cc1nsc(-c2nc(N3C[C@H](F)CC3=O)c3n2CCN(C(=O)c2ccc(F)cc2)[C@@H]3C)n1", "AUC [ng·h/mL]": 842}
{"compound": "Cc1nsc(-c2nnc3n2CCN(C(=O)c2ccc(F)cc2)[C@@H]3C)n1 [Fezolinetant, reference compound]", "AUC [ng·h/mL]": 2670}

====

Assay: Pharmacokinetic test in rats: plasma and brain concentration after gavage 3 mg/kg
Format: in vivo
Details: rat, plasma, oral, SD rats, sampling time 8 h, read-out: Plasma conc.
Description: Test Example 4: Pharmacokinetic Test of Compounds of the Present Invention in Rats To study in vivo pharmacokinetic behaviors of the compounds of the present invention in rats, and evaluate pharmacokinetic characteristics thereof. […] The concentrations of corresponding compounds in plasma and cerebrospinal fluid were detected by LC-MS/MS.

{"smiles.record": "Cc1nsc(-c2nc(-c3cc(F)ncc3F)c3n2CCN(C(=O)c2ccc(F)cc2)[C@@H]3C)n1", "concentration at 8 h": "598 ng/mL"}

====

Biological target: human NK-3 receptor (Homo sapiens, UniProt P29371)
Sequence (P29371 1-465): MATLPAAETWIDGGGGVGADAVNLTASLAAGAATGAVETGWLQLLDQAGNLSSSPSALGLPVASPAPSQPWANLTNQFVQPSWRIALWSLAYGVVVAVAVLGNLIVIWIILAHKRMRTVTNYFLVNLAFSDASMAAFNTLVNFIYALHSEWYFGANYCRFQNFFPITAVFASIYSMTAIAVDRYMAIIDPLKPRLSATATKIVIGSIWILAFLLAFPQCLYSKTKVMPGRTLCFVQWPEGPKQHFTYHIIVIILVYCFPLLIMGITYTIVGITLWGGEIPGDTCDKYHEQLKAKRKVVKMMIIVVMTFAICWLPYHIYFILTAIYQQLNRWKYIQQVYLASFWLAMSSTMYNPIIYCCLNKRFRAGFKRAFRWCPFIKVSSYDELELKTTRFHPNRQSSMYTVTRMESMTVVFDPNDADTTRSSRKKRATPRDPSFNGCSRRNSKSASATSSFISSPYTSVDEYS
Assay: Antagonistic activity on human NK-3 receptor in human NK-3R/HEK293 stably transfected cells (Fluo-4, FLIPR, Neurokinin B as agonist)
Settings: human NK-3R/HEK293 cells
Description: Test Example 1: Determination of Activity of Compounds of the Present Invention on Human NK-3 Receptor This method is used to determine antagonistic effects of the compounds of the present invention on the activity of human NK-3 receptor proteins expressed in cell lines stably transfected with human NK-3R/HEK293. […]
pIC50: −log10 of the molar value.
Entries and their pIC50
assay.metric: pIC50

{"molecule": "Cc1nsc(-c2nc(N3CCN(C)CC3=O)c3n2CCN(C(=O)c2ccc(F)cc2)[C@@H]3C)n1", "observed": 7.63}
{"molecule": "Cc1nsc(-c2nc(C(F)F)c3n2CCN(C(=O)c2ccc(F)cc2)[C@@H]3C)n1", "observed": 6.67}
{"molecule": "CC(=O)O[C@@H]1CC(=O)N(c2nc(-c3nc(C)ns3)n3c2[C@@H](C)N(C(=O)c2ccc(F)cc2)CC3)C1", "observed": 7.73}
{"molecule": "Cc1nsc(-c2nc(-c3ccnc(F)c3F)c3n2CCN(C(=O)c2ccc(F)cc2)[C@@H]3C)n1", "observed": 7.87}
{"molecule": "Cc1nsc(-c2nc(N3CCC(O)CC3=O)c3n2CCN(C(=O)c2ccc(F)cc2)[C@@H]3C)n1 (stereo partly drawn)", "observed": 7.92}
{"molecule": "CC(=O)N(C)c1nc(-c2nc(C)ns2)n2c1C(C)N(C(=O)c1ccc(F)cc1)CC2 (stereo not drawn)", "observed": 7.48}
{"molecule": "COc1cc(-c2nc(-c3nc(C)ns3)n3c2[C@@H](C)N(C(=O)c2ccc(F)cc2)CC3)ccn1", "observed": 7.07}
{"molecule": "Cc1nsc(-c2nc(N3CCCC3=O)c3n2CCN(C(=O)c2ccc(F)cc2C)[C@@H]3C)n1", "observed": 7.07}
{"molecule": "Cc1nsc(-c2nc(N3CCCC3=O)c3n2CCN(C(=O)c2ccc(F)cc2)[C@@H]3C)n1", "observed": 8.08}
{"molecule": "Cc1nsc(-c2nc(N3C[C@@H](O)CC3=O)c3n2CCN(C(=O)c2ccc(F)cc2)[C@@H]3C)n1", "observed": 7.51}
{"molecule": "CC(=O)Nc1nc(-c2nc(C)ns2)n2c1[C@@H](C)N(C(=O)c1ccc(F)cc1)CC2", "observed": 7.52}
{"molecule": "Cc1nsc(-c2nc(N3Cc4ccccc4CC3=O)c3n2CCN(C(=O)c2ccc(F)cc2)[C@@H]3C)n1", "observed": 7.29}
{"molecule": "Cc1nsc(-c2nc(N3CC=CC3=O)c3n2CCN(C(=O)c2ccc(F)cc2)[C@@H]3C)n1", "observed": 7.17}
{"molecule": "Cc1nsc(-c2nc(-c3ccnnc3)c3n2CCN(C(=O)c2ccc(F)cc2)[C@@H]3C)n1", "observed": 7.25}
{"molecule": "COCCc1nc(-c2nc(C)ns2)n2c1C(C)N(C(=O)c1ccc(F)cc1)CC2 (racemic)", "observed": 6.96}

====

Experiment: Pharmacokinetic test in rats (gavage 3 mg/kg, intravenous 1 mg/kg)
Type: in vivo
Settings: rat, plasma, po; SD rats, gavage 3 mg/kg vs intravenous 1 mg/kg; read-out: Oral bioavailability F (%)
Entries and their bioavailability

{"compound": "Cc1nsc(-c2nc(N3CCCC3=O)c3n2CCN(C(=O)c2ccc(F)cc2)[C@@H]3C)n1 [Compound 068]", "measurement.unit": "%", "bioavailability": 73.4}
{"compound": "Cc1nsc(-c2nc(-c3cc(F)ncc3F)c3n2CCN(C(=O)c2ccc(F)cc2)[C@@H]3C)n1 [Compound 077]", "measurement.unit": "%", "bioavailability": 58.4}
{"compound": "CC(=O)Nc1nc(-c2nc(C)ns2)n2c1[C@@H](C)N(C(=O)c1ccc(F)cc1)CC2 [Compound 034]", "measurement.unit": "%", "bioavailability": 83.1}
{"compound": "Cc1nsc(-c2nc(N3C[C@H](F)CC3=O)c3n2CCN(C(=O)c2ccc(F)cc2)[C@@H]3C)n1 [Compound 107]", "measurement.unit": "%", "bioavailability": 65.6}

====

Assay: Pharmacokinetic test in rats: plasma and brain concentration after gavage 3 mg/kg
Type: in vivo
Conditions: rat, brain, oral, SD rats, sampling time 1 h, read-out: Brain conc.

{"compound": "Cc1nsc(-c2nnc3n2CCN(C(=O)c2ccc(F)cc2)[C@@H]3C)n1 [Fezolinetant, reference compound]", "concentration at 1 h": "512 ng/mL"}
